# system tested: CNP058 (Canarypox virus, UniProt Q6VZT9)
# Sequence (Q6VZT9 1-143 limits assumed): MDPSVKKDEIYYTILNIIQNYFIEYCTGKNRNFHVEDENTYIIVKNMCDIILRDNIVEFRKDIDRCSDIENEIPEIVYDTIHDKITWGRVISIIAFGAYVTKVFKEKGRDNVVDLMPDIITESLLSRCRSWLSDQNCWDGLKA
# assay overview: biochemical
# Assay type: binding
No end group written: not given here.

sequence string: PEVNEAIVRTIAAQLAEIGDQLDKQIKAKVVNDL [GG_Bid]
Kd [nM]: 50

All figures here come from paper PMC5691656.
